# Organism: Homo sapiens
# Assay remarks: Selectivity ratio of IC50 for human FAAH to IC50 for human MGL
The following molecules are shown together with reported Ratio IC50 values.

COc1ccc(N2C(=O)C=CC2=O)cc1 :: > 200
CCc1ccccc1N1C(=O)C=CC1=O :: > 150
Cc1cccc(N2C(=O)C=CC2=O)c1 :: > 200
Cc1ccccc1N1C(=O)C=CC1=O :: > 200
Cc1ccc(N2C(=O)C=CC2=O)cc1 :: > 150

Now for a further molecule.
Answer with reported Ratio IC50 of COc1cccc(N2C(=O)C=CC2=O)c1
> 200

###

# Test system: Monoglyceride lipase (Homo sapiens)
# Sequence (Q99685 whole entry): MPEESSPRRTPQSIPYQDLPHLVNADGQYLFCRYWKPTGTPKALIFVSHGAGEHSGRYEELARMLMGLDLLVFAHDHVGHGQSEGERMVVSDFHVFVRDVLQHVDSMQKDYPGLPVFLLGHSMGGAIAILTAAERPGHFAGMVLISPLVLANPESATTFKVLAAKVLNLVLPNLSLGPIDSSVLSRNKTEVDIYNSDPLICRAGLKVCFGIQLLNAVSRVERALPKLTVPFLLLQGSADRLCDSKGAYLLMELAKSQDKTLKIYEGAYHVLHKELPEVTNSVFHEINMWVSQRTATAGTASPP
# Assay remarks: Displacement of [3H]2-OG from human MGL by liquid scintillation counting
pIC50: −log10 of the molar value.
Observable: pIC50

Reference set (2 entries):
O=C1C=CC(=O)N1CCOCCOCCN1C(=O)C=CC1=O :: 5.71
O=C1C=CC(=O)N1c1ccccc1Br :: 5.53

[a] CN1C(=O)C=CC1=O
[b] O=C1C=CC(=O)N1CCCCc1ccccc1
Short answer wanted: higher pIC50, a or b ? // return label of chosen record
b
(b: 5.67, a: 4.61)
